target: human H3 receptor (Homo sapiens); construct: purchased Perkin Elmer ES-392-M400UA; host or cells: CHO-K1 cells (recombinant expression), membrane preparation; experiment: H3 Receptor Binding Test; details: 50% inhibition of R(−)-α-methyl[3H]histamine (1 nM) binding; membrane preparation of human H3 receptor-expressing CHO-K1 cells
Sequence (Q9Y5N1 whole entry): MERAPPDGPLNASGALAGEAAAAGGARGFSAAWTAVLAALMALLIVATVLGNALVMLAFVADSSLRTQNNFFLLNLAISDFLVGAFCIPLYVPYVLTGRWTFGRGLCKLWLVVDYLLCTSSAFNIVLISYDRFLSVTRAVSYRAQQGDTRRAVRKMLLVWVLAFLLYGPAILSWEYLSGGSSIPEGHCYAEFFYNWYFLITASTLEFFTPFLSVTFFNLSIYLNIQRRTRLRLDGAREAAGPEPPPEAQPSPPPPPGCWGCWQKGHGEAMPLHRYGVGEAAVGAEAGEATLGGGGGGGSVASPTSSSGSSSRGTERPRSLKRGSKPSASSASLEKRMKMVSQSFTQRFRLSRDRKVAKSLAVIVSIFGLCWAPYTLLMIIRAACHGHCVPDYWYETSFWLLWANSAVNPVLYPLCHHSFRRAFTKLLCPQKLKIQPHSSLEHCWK
Measured Metric: IC50 (nM)

Example cases with answers are listed next.
Compound	Measured On	IC50 (nM)
COc1ccc(N2C(=O)CCc3cc(OCCCN4CCC[C@H]4C)ccc32)cn1 [Compound No. 48]	human H3 receptor (Homo sapiens)	8.7
C[C@@H]1CCCN1CCCOc1ccc2c(c1)CCC(=O)N2c1ccc(CO)cc1 [Compound No. 10]	human H3 receptor (Homo sapiens)	1.6
COc1ccc(N2C(=O)CCc3cc(OCCCN4CCC[C@H]4C)ccc32)cc1 [Compound No. 4]	human H3 receptor (Homo sapiens)	2.7
C[C@@H]1CCCN1CCCOc1ccc2c(c1)CCC(=O)N2c1cccc(C(=O)N(C)C)c1 [Compound No. 21]	human H3 receptor (Homo sapiens)	26

[P] O=C1CCc2cc(OCCCN3CCCCC3)ccc2N1c1ccc(F)cc1 [Compound No. 82]
[Q] N#Cc1ccc(N2C(=O)CCc3cc(OC4CCN(C5CCC5)CC4)ccc32)cc1 [Compound No. 73]
input: Lower IC50: P or Q ? # respond with the chosen item's label
output: Q
(Q: 1 nM, P: 9.1 nM)
